Taken from ChEMBL document CHEMBL4196170.

System: NCI/ADR-RES
Assay: Cytotoxicity against human MCF7/ADR cells after 48 hrs by MTT assay
Format: functional, cell-based
value_type: pIC50
In textbook form, pIC50 equals minus log to base ten of the concentration in mol/L.

Exercise: // Input: COC1=C(c2ccc(OC)cc2)C(=O)C=C(c2ccccc2)C1=O . Output its pIC50 only.
Solution: 4.63
